- TEST_NAME: Cytotoxicity in human CRL1579 cells assessed as cell viability after 48 hrs by MTT assay
- Assay type: functional, cell-based
RECORDED_ENDPOINT: IC50 (µM)
Record the value in µM, omitting the unit from your answer.

query: Any idea what its IC50 is? The molecule is `C=C(CC[C@@H](CO)[C@H]1CC[C@@]2(C)C3=CC[C@H]4C(C)(C)[C@@H](O)CC[C@]4(C)C3=CC[C@]12C)C(C)C`
result: 2.8

query: Can you look up the measured IC50 of C=C(CC[C@@H](C(=O)OC)[C@H]1CC[C@@]2(C)C3=CC[C@@H](C(=C)C)[C@](C)(CCC(=O)OC)C3=CC[C@]12C)C(C)C [DIMETHYL PORICOATE C] for me?
result: 27.8

query: Need IC50, item `C=C(CC[C@@H](C(=O)OC)[C@H]1CC[C@@]2(C)C3=CC[C@H]4C(C)(C)C(=O)CC[C@]4(C)C3=CC[C@]12C)C(C)C`
result: 20.9

query: If you can, please state the reported IC50 value of `C=C(CC[C@@H](CO)[C@H]1[C@H](O)C[C@@]2(C)C3=C(CC[C@]12C)[C@@](C)(CCCO)[C@H](C(=C)C)CC3)C(C)C` .
result: 9.9

query: Consider the molecule shown here: C=C(CCC(C(=O)O)[C@H]1CC[C@@]2(C)C3=CC[C@H]4C(C)(C)C(=O)CC[C@]4(C)C3=CC[C@]12C)C(C)C (stereo partly specified) [DEHYDROEBURICONIC ACID] What is its recorded IC50?
result: 89.7

====

- Test system: PANC-1
- TEST_NAME: Cytotoxicity in human PANC1 cells assessed as cell viability after 48 hrs by MTT assay
- Format: functional, cell-based
- MEASUREMENT_CONDITIONS: PANC-1, 48 h
Would you kindly list pIC50 for each of these molecules?
Just the number, please; pIC50 means minus log10 of the concentration in mol/L.

query: Form: Entry = `C=C(CC[C@@H](CO)[C@H]1CC[C@@]2(C)C3=CC[C@H]4C(C)(C)[C@@H](O)CC[C@]4(C)C3=CC[C@]12C)C(C)C` | System = PANC-1 | pIC50 = ____
result: 4.65

query: Give recorded pIC50 with PANC-1 for the following molecule: C=C(CC[C@@H](CO)[C@H]1[C@H](O)C[C@@]2(C)C3=CC[C@@H](C(=C)C)[C@](C)(CCCO)C3=CC[C@]12C)C(C)C [PORICOTRIOL A]
result: 4.58

====

- Tested on: A549
- TEST_NAME: Cytotoxicity in human A549 cells assessed as cell viability after 48 hrs by MTT assay
- Format: functional, cell-based
- MEASUREMENT_CONDITIONS: A549, 48 h
RECORDED_ENDPOINT: pIC50
Lab note: report pIC50 as minus log10 of the concentration in molar units, number only.

query: Fill blank: measured pIC50 of the compound `C=C(CC[C@@H](C(=O)OC)[C@H]1[C@H](O)C[C@@]2(C)C3=CC[C@H]4C(C)(C)[C@H](O)CC[C@]4(C)C3=CC[C@]12C)C(C)(C)O` is ____.
result: 4.38

query: # input compound: C=C(CC[C@@H](CO)[C@H]1CC[C@@]2(C)C3=CC[C@@H](C(=C)C)[C@](C)(CCCO)C3=CC[C@]12C)C(C)C [PORICOTRIOL C] ; wanted: its pIC50
result: 4.10

query: pIC50 for C=C(CC[C@@H](C(=O)OC)[C@H]1[C@H](O)C[C@@]2(C)C3=C(CC[C@]12C)[C@@](C)(CCC(=O)OC)[C@H](C(=C)C)CC3)C(C)C [DIMETHYL PORICOATE H] ?
result: 4.87

query: Value lookup for pIC50; key = `C=C(CC[C@@H](C(=O)O)[C@H]1[C@H](O)C[C@@]2(C)C3=CC[C@H]4C(C)(C)[C@H](O)CC[C@]4(C)C3=CC[C@]12C)C(C)(C)O`
result: 5.40

query: Which value of pIC50 has been reported for C=C(C)[C@@H]1CCC2=C(CC[C@]3(C)[C@@H]([C@H](CO)CCC=C(C)C)[C@H](O)C[C@@]23C)[C@@]1(C)CCCO [PORICOTRIOL G] in the records?
result: 4.96

query: May I ask what pIC50 has been recorded for `C=C(CC[C@@H](CO)[C@H]1[C@H](O)C[C@@]2(C)C3=C(CC[C@]12C)[C@@](C)(CCCO)[C@H](C(=C)C)CC3)C(C)C` ?
result: 4.39

query: Report pIC50 for C=C(C)[C@@H]1CCC2=C(CC[C@]3(C)[C@@H]([C@@H](CCC=C(C)C)C(=O)OC)[C@H](O)C[C@@]23C)[C@@]1(C)CCC(=O)OC [DIMETHYL PORICOATE G] please.
result: 4.18

query: Report pIC50 for C=C(CC[C@@H](C(=O)O)[C@H]1CC[C@@]2(C)C3=CC[C@@H](C(=C)C)[C@](C)(CCC(=O)O)C3=CC[C@]12C)C(C)C [PORICOIC ACID C] please.
result: 4.57

query: Fill in: pIC50 of `C=C(CC[C@@H](CO)[C@H]1CC[C@@]2(C)C3=CC[C@H]4C(C)(C)[C@@H](O)CC[C@]4(C)C3=CC[C@]12C)C(C)C` is ___
result: 5.40

query: Entry C=C(CC[C@@H](C(=O)OC)[C@H]1[C@H](O)C[C@@]2(C)C3=CC[C@@H](C(=C)C)[C@](C)(CCC(=O)OC)C3=CC[C@]12C)C(C)C [DIMETHYL PORICOATE A] has what pIC50?
result: 4.10

query: Fill blank: measured pIC50 of the compound `C=C(CC[C@@H](C(=O)OC)[C@H]1CC[C@@]2(C)C3=CC[C@H]4C(C)(C)C(=O)CC[C@]4(C)C3=CC[C@]12C)C(C)C` is ____.
result: 4.02

query: # lookup: pIC50 of C=C(CCC(C(=O)O)[C@H]1CC[C@@]2(C)C3=CC[C@H]4C(C)(C)C(=O)CC[C@]4(C)C3=CC[C@]12C)C(C)C (stereo partly drawn) [DEHYDROEBURICONIC ACID]
result: 5.00

query: What does the record list as pIC50 for C=C(CC[C@@H](C(=O)OC)[C@H]1CC[C@@]2(C)C3=CC[C@@H](C(=C)C)[C@](C)(CCC(=O)OC)C3=CC[C@]12C)C(C)C [DIMETHYL PORICOATE C] ?
result: 4.08

query: # input compound: C=C(CC[C@@H](CO)[C@H]1[C@H](O)C[C@@]2(C)C3=CC[C@@H](C(=C)C)[C@](C)(CCCO)C3=CC[C@]12C)C(C)C [PORICOTRIOL A] ; wanted: its pIC50
result: 5.38

====

- TEST_NAME: Cytotoxicity in human AZ-521 cells assessed as cell viability after 48 hrs by MTT assay
- Assay type: functional, cell-based
- MEASUREMENT_CONDITIONS: AZ-521, 48 h
pIC50: −log10 of the molar value.
Mark True for reported pIC50 of 5 or greater; mark False for anything smaller.

query: Hello, I need to know if C=C(CCC(C(=O)O)[C@H]1CC[C@@]2(C)C3=CC[C@H]4C(C)(C)C(=O)CC[C@]4(C)C3=CC[C@]12C)C(C)C (some centres not stated) [DEHYDROEBURICONIC ACID] has measured pIC50 not below 5. Thanks!
result: False

query: I'd appreciate it if you could say whether C=C(CC[C@@H](C(=O)OC)[C@H]1CC[C@@]2(C)C3=CC[C@@H](C(=C)C)[C@](C)(CCC(=O)OC)C3=CC[C@]12C)C(C)C [DIMETHYL PORICOATE C] has pIC50 at least equal to 5.
result: False

query: Item `C=C(CC[C@@H](C(=O)O)[C@H]1[C@H](O)C[C@@]2(C)C3=CC[C@H]4C(C)(C)[C@H](O)CC[C@]4(C)C3=CC[C@]12C)C(C)(C)O` with pIC50 of 5 or above?
result: False

query: Textbook exercise: given the entry C=C(CC[C@@H](CO)[C@H]1[C@H](O)C[C@@]2(C)C3=CC[C@@H](C(=C)C)[C@](C)(CCCO)C3=CC[C@]12C)C(C)C [PORICOTRIOL A] , state whether its pIC50 is greater than or equal to 5.
result: True

query: Record `C=C(CC[C@@H](C(=O)OC)[C@H]1CC[C@@]2(C)C3=CC[C@H]4C(C)(C)C(=O)CC[C@]4(C)C3=CC[C@]12C)C(C)C` ; criterion: pIC50 no lower than 5. Met?
result: False

query: Hi, just wondering whether C=C(CC[C@@H](C(=O)O)[C@H]1[C@H](O)C[C@@]2(C)C3=C(CC[C@]12C)[C@@](C)(CCC(=O)O)[C@H](C(=C)C)CC3)C(C)C [PORICOIC ACID H] shows pIC50 of 5 or higher.
result: False
